targetDesc: T1, recombinant Glypican-1 (R&D systems 4519-GP-050) (Homo sapiens (Human), UniProt P35052 24-530)
T1 construct: Bought protein
T1 sequence: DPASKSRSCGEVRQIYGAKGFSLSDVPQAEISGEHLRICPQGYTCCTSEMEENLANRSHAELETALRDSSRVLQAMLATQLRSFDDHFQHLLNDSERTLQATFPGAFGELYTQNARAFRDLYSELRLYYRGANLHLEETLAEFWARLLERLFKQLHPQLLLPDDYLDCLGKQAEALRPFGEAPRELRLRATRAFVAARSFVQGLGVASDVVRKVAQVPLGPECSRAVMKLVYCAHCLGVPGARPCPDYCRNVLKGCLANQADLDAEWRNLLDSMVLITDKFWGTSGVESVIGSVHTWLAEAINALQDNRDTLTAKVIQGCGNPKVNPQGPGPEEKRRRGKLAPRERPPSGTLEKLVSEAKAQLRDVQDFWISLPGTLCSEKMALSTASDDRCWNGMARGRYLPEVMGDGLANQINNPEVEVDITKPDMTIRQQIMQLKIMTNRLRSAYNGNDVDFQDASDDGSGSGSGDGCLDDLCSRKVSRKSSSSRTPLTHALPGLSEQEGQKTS
measurementDescription: Biacore 3000 (SPR): antibody captured on rabbit anti-mouse IgG on a CM5 chip, recombinant Glypican-1 added at various concentrations; BIAevaluation 4.1
pKd: −log10 of the molar value.

# binder, pKd
rows = [
    ("anti-GPC-1 antibody 2-63 (antibody, V domains shown, detection was with anti-mouse IgG and the control was mouse IgG2a; also called #18; clone 2-63) VH: AVTLDESGGGLQTPGGTLSLVCKASGFDFSSVNMFWVRQAPGKGLEFVAGIDNDATFTLYGSAVKGRASISRDNGQSTVRLQLNNLRAEDTGTYYCAKTLCSTTWGCGAYSAGDIDAWGHGTEVTVST VL: ALTQPSSVSANPGETVKITCSGGGSSGYGYYGWYQQKSPGSAPVTVIYNNNKRPTDIPSRFSGALSGSTATLTITGVQVEDEAVYYCGSRDNTYVGIFGAGTTLTV", 8.21),
    ("anti-GPC-1 antibody 1-57 (antibody, V domains shown, detection was with anti-mouse IgG and the control was mouse IgG2a; also called #10; clone 1-57) VH: AVTLDESGGGLQTPGGGLSLVCKGSGFTLTDRGMHWVRQAPGKGLEWVAAISSSGRFTLYAPAVTGRATISRDNGQSTVRLQLNNLRAEDTGTYYCARGNAGGWWADGGEIDAWGHGTEVIVST VL: ALTQPSSVSANPGETVKITCSGGSGSYGWFQQKSPGSAPVTVIYSNNKRPTDIPSRFSGSKSGSTNTLTITGVQADDEAVYFCGSADSSYIGIFGAGTTLTV", 6.75),
    ("anti-GPC-1 antibody 2-60 (antibody, V domains shown, detection was with anti-mouse IgG and the control was mouse IgG2a; also called #17; clone 2-60) VH: AVTLDESGGGLQTPGGALSLVCKASGFTYSSYAMGWVRQAPGKGLEFVASISSDGSDTAYGSAVKGRATISRDNRQSTLRLQLNNLRAEDTGTYYCAKSYRCSWNCWDYAAKIDAWGHGTEVTVS VL: VALTQPASVSANPGETVKITCSGSGSYTGSYYYGWYQQKSPGSAPVTVIYNNNKRPSDIPSRFSGSTSGSTATLTITGVQAEDEAVYFCGSYDRSSDSGIFGAGTTLTV", 7.82),
    ("anti-GPC-1 antibody 1-5 (antibody, V domains shown, detection was with anti-mouse IgG and the control was mouse IgG2a; also called #2; clone 1-5) VH: AVTLDESGGGLQTPGGALSLVCKASGFKFRSYDMYWVRQAPGKGLEYVAGIINTGRETYYGAAVKGRATISRDNGRSTVRLQLNNLRAEDTGTYFCAKGAAWNYAGSIDAWGHGTEVIVST VL: ALTQPASVSANPGETVKITCSGGSGSYGWYQQKSPGSAPVTVIYGDNKRPTDISSRFSGSTSGSTNTLTITGVQAEDEAVYFCGSRDNTYAGIFGAGTTLTV", 7.68),
]

The measurements presented in this section are drawn from patent US20170066836A1.
